Target: human-5HT1A receptors (Homo sapiens, UniProt P08908)
Construct: expressed in transfected cells; host or cells: mouse 3T3 cells
Sequence (P08908 whole entry): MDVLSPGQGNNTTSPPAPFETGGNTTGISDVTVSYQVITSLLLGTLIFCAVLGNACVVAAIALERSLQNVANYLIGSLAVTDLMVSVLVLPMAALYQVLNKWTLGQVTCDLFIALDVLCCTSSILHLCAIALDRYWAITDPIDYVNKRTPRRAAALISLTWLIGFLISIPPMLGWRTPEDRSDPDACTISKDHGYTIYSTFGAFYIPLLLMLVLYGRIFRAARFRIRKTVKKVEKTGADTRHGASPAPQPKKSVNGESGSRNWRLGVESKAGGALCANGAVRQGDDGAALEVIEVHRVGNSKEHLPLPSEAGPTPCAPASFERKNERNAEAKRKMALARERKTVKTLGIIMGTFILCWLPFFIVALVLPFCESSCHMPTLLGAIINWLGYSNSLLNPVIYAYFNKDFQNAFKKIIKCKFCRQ
Assay: [3H]-5-HT displacement on recombinant human 5HT1A receptors expressed in 3T3 cells of mice (Method II a)
Format: binding
Conditions: human 5HT1A, [3H]-5-HT (1 nM), 3T3 cell membranes, Method II; read-out: pki, test method a (converted)
Endpoint name: Ki (µM)
All answers are understood in µM, so give the number only.

Measured Ki of CCc1ccc2c(c1)-c1c(ccn1C[C@H](C)N)C2 : 10

Quick note, Ki for Cc1ccc2c(c1)-c1c(ccn1C[C@H](C)N)C21CCCC1 landed at 1.86

Sample C[C@H](N)Cn1ccc2c1-c1cc(-c3ccccc3)ccc1C2 ; Ki observed: 10

Data point: Cc1cccc2c1Cc1ccn(CC(C)N)c1-2 (racemic) ; Ki = 2.4

---

Biological target: 5HT1A receptor
Assay: 3H-8-OH-DPAT binding assay (Method I a)
Conditions: read-out: IC50, test method a
# label = 1 if IC50 < 800 nM else 0

Dear colleague, could you confirm whether IC50 of COc1ccc2ccc3ccn(C[C@H](C)N)c3c2c1 falls below 800 nM? Thanks.
0

Criterion: IC50 strictly below 800 nM. Is it met by COc1ccc2c(c1)Cc1ccn(CC(C)N)c1-2 (racemic) ?
0

IC50 under 800 nM? Item: COc1ccc2ccc3ccn(C[C@@H](C)N)c3c2c1
1

Quick check: does COc1cccc2c1-c1c(ccn1CC(C)N)C2 (racemic) have IC50 under 800 nM?
0

Hello, I'm reviewing records and need to know if IC50 of COc1ccc2c(c1)-c1c(ccn1C[C@@H](C)N)C2 is below 800 nM. Could you check?
0

Strictly below 800 nM in IC50? COc1ccc2c(c1)-c1c(ccn1C(C)(C)N)CO2
0

hey, is IC50 for COc1ccc2c(c1)-c1c(ccn1C[C@@H](C)N)CC2 lower than 800 nM or not?
1

I wonder whether Clc1cccc(N2CCNCC2)c1 [mCPP, reference compound] has IC50 below 800 nM. Can you tell?
1

Is 800 nM strictly greater than the compound's reported IC50? compound: COc1ccc2c(c1)-c1c(ccn1C[C@H](C)N)CC2.O=C(O)/C=C/C(=O)O
0

Is it true that IC50 reported for CC(N)Cn1ccc2c1-c1ccccc1C2c1ccccc1 (racemic) is less than 800 nM?
0

IC50 under 800 nM? Item: COc1ccc2c(c1)-c1c(ccn1CCN)CC2
1

Bench note: check whether COc1ccccc1N1CCN(CCCCN2C(=O)c3ccccc3C2=O)CC1 [NAN-190, reference compound] shows IC50 below 800 nM
1

Item C[C@H](N)Cn1ccc2c1-c1cc(Cl)ccc1C2 : IC50 beneath 800 nM, strictly?
0

IC50 strictly < 800 nM for this compound? Cc1nc2ccccn2c(=O)c1CCN1CCC(C(=O)c2ccc(F)cc2)CC1 [Pirenperone, reference compound]
0

Strictly below 800 nM in IC50? CC(N)Cn1ccc2c1-c1ccccc1SC2 (racemic)
1

Find out if reported IC50 for COc1ccc2c(c1)-c1c(ccn1CCN)C2 is less than 800 nM
1

Given COc1ccc2[nH]cc(C3=CCNCC3)c2c1 [RU 24969, reference compound] , is recorded IC50 strictly lower than 800 nM?
1

Consider COc1ccc2ccc3ccn(CCN)c3c2c1 . Does its IC50 lie strictly below 800 nM?
1

Is IC50 strictly under 800 nM for the entry O=c1ccc2[nH]cc(C3=CCNCC3)c2[nH]1 [CP 93129, reference compound] ?
0

Dear colleague, could you confirm whether IC50 of COc1ccc2c(c1)-c1c(ccn1CC(C)N)C2 (racemic) falls below 800 nM? Thanks.
0

---

Target: 5HT2C receptor (Sus scrofa)
Construct: from tissue
Sequence (K7GSR7 1-457): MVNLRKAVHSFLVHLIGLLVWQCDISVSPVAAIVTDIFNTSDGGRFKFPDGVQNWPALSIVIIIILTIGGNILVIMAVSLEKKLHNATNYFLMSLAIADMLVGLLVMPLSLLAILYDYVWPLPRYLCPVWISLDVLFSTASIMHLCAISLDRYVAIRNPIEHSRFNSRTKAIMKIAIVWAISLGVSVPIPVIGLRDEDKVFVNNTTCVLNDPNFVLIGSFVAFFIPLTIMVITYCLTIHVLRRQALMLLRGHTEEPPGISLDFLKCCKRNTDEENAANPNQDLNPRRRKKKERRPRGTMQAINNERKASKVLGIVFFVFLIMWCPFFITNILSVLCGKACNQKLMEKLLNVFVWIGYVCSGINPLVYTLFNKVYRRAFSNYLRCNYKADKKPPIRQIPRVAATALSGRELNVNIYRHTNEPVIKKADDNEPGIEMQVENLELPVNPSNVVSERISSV
Assay: 3H-mesulergine binding assay (Method I b)
Endpoint name: pIC50
Scale: pIC50 equals -log10([C]), with [C] in mol/L.

Lab note: compound Cc1nc2sccn2c(=O)c1CCN1CCC(=C(c2ccc(F)cc2)c2ccc(F)cc2)CC1 [Ritanserine, reference compound] tested on 5HT2C receptor (Sus scrofa); recorded pIC50 was 7.43

Simply: COc1ccc2c(c1)-c1c(ccn1C[C@@H](C)N)CC2 , 5HT2C receptor (Sus scrofa), pIC50 = 7.24

I looked up COc1ccc2ccc3ccn(CCN)c3c2c1 and its pIC50 for 5HT2C receptor (Sus scrofa) was 7.74

Noted pIC50 for CC(N)Cn1ccc2c1-c1ccc(Cl)cc1C2 (racemic) , tested on 5HT2C receptor (Sus scrofa): 6.51

5HT2C receptor (Sus scrofa) pIC50 of COc1cccc2c1-c1c(ccn1CC(C)N)C2 (racemic) is 6.84

Fill in: 5HT2C receptor (Sus scrofa) pIC50 for COc1ccc2c(c1)-c1c(ccn1CCN)C2 = 7.34

Tested on 5HT2C receptor (Sus scrofa): CN1C[C@H](CNC(=O)OCc2ccccc2)C[C@@H]2c3cccc4c3c(cn4C)C[C@H]21 [Metergoline, reference compound] . Observed pIC50: 8.26

The recorded pIC50 with 5HT2C receptor (Sus scrofa) for COc1ccc2c(c1)Cc1ccn(CC(C)N)c1-2 (racemic) was 6.43

Field pIC50 (5HT2C receptor (Sus scrofa)), entry COc1ccc2c(c1)-c1c(ccn1C[C@H](C)N)C2 : 7.94

Item CC(N)Cn1ccc2c1-c1ccccc1C2c1ccccc1 (racemic) was tested on 5HT2C receptor (Sus scrofa); the reported pIC50 is 6.84

Response field pIC50 (5HT2C receptor (Sus scrofa)) for item COc1ccc2ccc3ccn(C[C@H](C)N)c3c2c1 : 7.62

Item: COc1ccc2c(c1)-c1c(ccn1C[C@H](C)N)CC2.O=C(O)/C=C/C(=O)O | System: 5HT2C receptor (Sus scrofa) | pIC50: 7.69

Form field pIC50 for item COc1ccc2c(c1)-c1c(ccn1C[C@@H](C)N)C2 on 5HT2C receptor (Sus scrofa): 7.10

Assay 5HT2C receptor (Sus scrofa), sample Cc1nc2ccccn2c(=O)c1CCN1CCC(C(=O)c2ccc(F)cc2)CC1 [Pirenperone, reference compound] , pIC50 read: 7.43

Fill in: 5HT2C receptor (Sus scrofa) pIC50 for C[C@H](N)Cn1ccc2c1-c1cc(Cl)ccc1C2 = 7.31

COc1ccc2ccc3ccn(C[C@@H](C)N)c3c2c1 on 5HT2C receptor (Sus scrofa) gives pIC50 = 7.55

Considering COc1ccc2c(c1)-c1c(ccn1CC(C)N)C2 (racemic) , its pIC50 with 5HT2C receptor (Sus scrofa) was recorded as 7.52

# value of pIC50, 5HT2C receptor (Sus scrofa), item COc1ccccc1N1CCN(CCCCN2C(=O)c3ccccc3C2=O)CC1 [NAN-190, reference compound] = 5.74

Observed pIC50, 5HT2C receptor (Sus scrofa), COc1ccc2c(c1)-c1c(ccn1CCN)CC2 : 7.62

So the reported pIC50 for CC(N)Cn1ccc2c1-c1cc(Cl)ccc1C2 (racemic) , on 5HT2C receptor (Sus scrofa), turned out to be 7.25

---

For each of the molecules below, state its pKi.
Molecular target: 5HT2C receptor (Rattus norvegicus)
Experiment: [3H]-5-HT binding assay (Method II b)
Design: expressed in transfected cells; host or cells: clonal 5-HT1C cell line
Recall that pKi is obtained by taking minus log10 of the concentration measured in molar.

Lab note: measured pKi of COc1ccc2c(c1)-c1c(ccn1C[C@H](C)N)C2 [Example 3] was 8.16

Given item COc1ccc2c(c1)-c1c(ccn1C[C@H](C)N)C2(C)C.O=C(O)/C=C/C(=O)O [Example 2] , the value recorded as its pKi is 9.44

// sample Cc1ccc2c(c1)-c1c(ccn1C[C@H](C)N)C21CCCC1 [Example 44] , its pKi was 7.10

---

Target: human-5HT1A receptors (Homo sapiens)
Construct: expressed in transfected cells; host or cells: mouse 3T3 cells
Assay: [3H]-5-HT displacement on recombinant human 5HT1A receptors expressed in 3T3 cells of mice (Method II a)
Type: binding
I'd be grateful if you could share measured Ki for these entries.
// units = µM; emit number, no label

Ki for CCC1(CC)c2ccc(OC)cc2-c2c1ccn2C[C@H](C)N is 10

Briefly, Ki measured for C[C@H](N)Cn1ccc2c1-c1cc(F)ccc1C2(C)C : 2.75

GET /value?item= C[C@H](N)Cn1ccc2c1-c1cc(F)c(F)cc1C2 &field=Ki returns 10

---

Give ED50 for every item shown.
Molecular target: 5HT2C receptor (Rattus norvegicus, UniProt P08909)
Sequence (P08909 33-460): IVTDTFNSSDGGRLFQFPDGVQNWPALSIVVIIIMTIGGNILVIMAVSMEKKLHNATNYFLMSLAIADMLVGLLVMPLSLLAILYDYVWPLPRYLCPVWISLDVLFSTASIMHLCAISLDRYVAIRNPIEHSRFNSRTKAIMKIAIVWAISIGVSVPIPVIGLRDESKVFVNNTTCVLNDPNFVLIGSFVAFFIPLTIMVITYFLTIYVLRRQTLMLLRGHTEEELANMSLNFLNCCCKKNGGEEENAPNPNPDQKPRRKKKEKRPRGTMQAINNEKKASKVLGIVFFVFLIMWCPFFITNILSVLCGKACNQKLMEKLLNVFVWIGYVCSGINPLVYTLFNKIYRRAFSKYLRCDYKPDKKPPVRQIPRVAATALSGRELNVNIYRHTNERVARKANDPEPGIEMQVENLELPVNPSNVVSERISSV
Experiment: Penile erection (rats)
Assay type: in vivo
Set-up: from tissue; host or cells: living rat
Settings: rat, sc, 0.75 h, s.c., number of penile erections within 45 minutes following administration, read-out: ED50
// note: answer is a bare numeric in mg/kg

Measured ED50 (5HT2C receptor (Rattus norvegicus, UniProt P08909)), entry COc1ccc2c(c1)-c1c(ccn1C[C@H](C)N)C2(C)C.O=C(O)/C=C/C(=O)O : 0.5

ED50 value, target or system 5HT2C receptor (Rattus norvegicus, UniProt P08909), for Cc1ccc2c(c1)-c1c(ccn1C[C@H](C)N)C2(C)C.O=C(O)/C=C/C(=O)O : 0.9

5HT2C receptor (Rattus norvegicus, UniProt P08909) assay, compound COc1ccc2c(c1)-c1c(ccn1C[C@H](C)N)C2 , recorded ED50 = 1.2

Considering C[C@H](N)Cn1ccc2c1-c1cc(Cl)ccc1C2 , its ED50 with 5HT2C receptor (Rattus norvegicus, UniProt P08909) was recorded as 2.7
